Each recorded value in this set is attributed to patent US20060166867A1.

Quick list: pEC50 per entry.
Tested on: HIV-1 IIIB
Experiment: microbe, parasite or virus in culture
Type: cell-based
Conditions: Table 4; read-out: EC50 IIIB
pEC50: −log10 of the molar value.

{"columns": ["CPD SMILES", "pEC50"],
 "data": [
  ["CC(=O)N[C@H](CCCNC(=N)N)C(=O)N[C@H](CCCNC(=N)N)C(=O)N[C@H](CCCNC(=N)N)C(=O)N[C@H](CCCNC(=N)N)C(=O)N[C@H](CCCNC(=N)N)C(=O)N[C@H](CCCNC(=N)N)C(=O)O", 5.24],
  ["CC(=O)N[C@H](CCCNC(=N)N)C(=O)N[C@H](CCCNC(=N)N)C(=O)N[C@H](CCCNC(=N)N)C(=O)N[C@H](CCCNC(=N)N)C(=O)N[C@H](CCCNC(=N)N)C(=O)N[C@H](CCCNC(=N)N)C(=O)N[C@H](CCCNC(=N)N)C(=O)N[C@H](CCCNC(=N)N)C(=O)N[C@H](CCCNC(=N)N)C(=O)NC[C@H]1O[C@H](O[C@H]2[C@H](O)[C@@H](O)[C@H](N)C[C@@H]2N)[C@H](N)[C@@H](O)[C@@H]1O", 5.64],
  ["CC(=O)N[C@H](CCCNC(=N)N)C(=O)N[C@H](CCCNC(=N)N)C(=O)N[C@H](CCCNC(=N)N)C(=O)N[C@H](CCCNC(=N)N)C(=O)N[C@H](CCCNC(=N)N)C(=O)N[C@H](CCCNC(=N)N)C(=O)N[C@H](CCCNC(=N)N)C(=O)N[C@H](CCCNC(=N)N)C(=O)N[C@H](CCCNC(=N)N)C(=O)O", 5.82]
]}
